Target: Mitogen-activated protein kinase kinase kinase 14 (Homo sapiens, UniProt Q99558)
Sequence (Q99558 whole entry, the tested form may be a part): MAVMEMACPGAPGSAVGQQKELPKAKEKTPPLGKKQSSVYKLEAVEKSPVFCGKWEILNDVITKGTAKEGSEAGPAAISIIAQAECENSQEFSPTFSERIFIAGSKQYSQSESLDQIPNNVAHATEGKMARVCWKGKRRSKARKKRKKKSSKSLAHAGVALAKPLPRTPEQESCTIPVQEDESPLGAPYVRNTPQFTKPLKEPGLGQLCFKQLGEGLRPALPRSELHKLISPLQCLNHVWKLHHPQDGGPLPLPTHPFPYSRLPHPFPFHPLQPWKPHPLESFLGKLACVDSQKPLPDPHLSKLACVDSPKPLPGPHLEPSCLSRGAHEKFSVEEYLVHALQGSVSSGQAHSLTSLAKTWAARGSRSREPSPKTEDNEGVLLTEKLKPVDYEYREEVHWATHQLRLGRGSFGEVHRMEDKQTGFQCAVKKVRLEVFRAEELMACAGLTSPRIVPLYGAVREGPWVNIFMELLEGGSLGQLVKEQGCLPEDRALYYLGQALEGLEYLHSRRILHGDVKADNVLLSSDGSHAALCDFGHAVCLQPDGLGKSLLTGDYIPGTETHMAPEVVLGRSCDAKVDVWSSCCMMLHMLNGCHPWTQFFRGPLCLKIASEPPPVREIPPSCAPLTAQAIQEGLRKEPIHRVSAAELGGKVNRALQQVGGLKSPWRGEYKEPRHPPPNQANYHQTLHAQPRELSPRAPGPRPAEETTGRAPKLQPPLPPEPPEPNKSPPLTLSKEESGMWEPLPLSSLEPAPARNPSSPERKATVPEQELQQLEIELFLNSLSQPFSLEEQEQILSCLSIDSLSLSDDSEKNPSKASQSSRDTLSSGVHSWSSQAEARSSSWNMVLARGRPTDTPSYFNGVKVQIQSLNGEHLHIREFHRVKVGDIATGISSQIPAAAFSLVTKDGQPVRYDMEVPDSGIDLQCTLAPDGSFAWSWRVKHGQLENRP
Assay: Binding affinity to biotinylated N-terminal 6His-tagged/TEV cleavage site-fused human NIK by SPR analysis
pKd: −log10 of the molar value.
measured property: pKd

# count of solved cases: 2
INSERT INTO results (compound, system_name, recorded_value) VALUES
  ('COc1cc(Cl)cc(C)c1C(C)(O)C1CC1 (configuration not stated)', 'Mitogen-activated protein kinase kinase kinase 14 (Homo sapiens, UniProt Q99558)', 3.82),
  ('Cc1cc(Cl)cc2c1C(O)(c1ccccc1)CCO2 (configuration not stated)', 'Mitogen-activated protein kinase kinase kinase 14 (Homo sapiens, UniProt Q99558)', 3.44);

(1) OC1CCOc2cc(Cl)ccc21 (configuration not stated)
(2) OC1(C2CC2)CCOc2cc(Cl)ccc21 (configuration not stated)
Problem: Which entry has a larger number for pKd, 1 or 2 ? Respond using the label that marks the chosen record.
Solution: 2

(P) CCC1(O)CCOc2cc(Cl)ccc21 (configuration not stated)
(Q) OC1(c2ccccc2)CCOc2cc(Cl)ccc21 (configuration not stated)
Problem: # query: argmin of pKd over P and Q Respond using the label that marks the chosen record.
Solution: Q
